Target: HLA-B*5101 (human)
Test: competition vs 125I probe peptide, purified HLA
Entries and their measured pIC50 follow.
Keep it numeric: pIC50 is minus log10 of the concentration in mol/L.

# annotated cases, reported pIC50 shown
FPIGHLYIFA [MAGE3.170.F1 FPIGHLYIFA] : 7.25
FPHISYPPL [MAGE2.296.F1 FPHISYPPL] : 6.75

For the binder FPKAGLLIIV [MAGE3.196.F1 FPKAGLLIIV] , give its measured pIC50 value.
6.72

For the binder FPTTMNYPL [MAGE3.71.F1 FPTTMNYPL] , give its measured pIC50 value.
6.37

For the binder FPRALIETSYI [MAGE2.274.F1I11 FPRALIETSYI] , give its measured pIC50 value.
7.15

For the binder FPKAGLLIII [MAGE3.196.F1I10 FPKAGLLIII] , give its measured pIC50 value.
7.19

For the binder FPIGHLYII [MAGE3.170.F1I9 FPIGHLYII] , give its measured pIC50 value.
8.30

For the binder FPRALIETSYV [MAGE2.274.F1 FPRALIETSYV] , give its measured pIC50 value.
6.89

Source listed as patent US20040053822A1.
